The values you see were collected from patent US20240376214A1.

The reader will find reported Fold shift (HGF) values listed item by item below.
- TARGET DESC: T1, human c-Met (HGFR), full length, on the cell surface (human, UniProt P08581 25-1390)
- T1 construct: Endogenous c-Met on human tumor cell lines MKN45, NCI-H596, PC-3 and HepG2; also called hepatocyte growth factor receptor; mesenchymal-epithelial transition factor
- T1 sequence (P08581 25-1390 limits assumed): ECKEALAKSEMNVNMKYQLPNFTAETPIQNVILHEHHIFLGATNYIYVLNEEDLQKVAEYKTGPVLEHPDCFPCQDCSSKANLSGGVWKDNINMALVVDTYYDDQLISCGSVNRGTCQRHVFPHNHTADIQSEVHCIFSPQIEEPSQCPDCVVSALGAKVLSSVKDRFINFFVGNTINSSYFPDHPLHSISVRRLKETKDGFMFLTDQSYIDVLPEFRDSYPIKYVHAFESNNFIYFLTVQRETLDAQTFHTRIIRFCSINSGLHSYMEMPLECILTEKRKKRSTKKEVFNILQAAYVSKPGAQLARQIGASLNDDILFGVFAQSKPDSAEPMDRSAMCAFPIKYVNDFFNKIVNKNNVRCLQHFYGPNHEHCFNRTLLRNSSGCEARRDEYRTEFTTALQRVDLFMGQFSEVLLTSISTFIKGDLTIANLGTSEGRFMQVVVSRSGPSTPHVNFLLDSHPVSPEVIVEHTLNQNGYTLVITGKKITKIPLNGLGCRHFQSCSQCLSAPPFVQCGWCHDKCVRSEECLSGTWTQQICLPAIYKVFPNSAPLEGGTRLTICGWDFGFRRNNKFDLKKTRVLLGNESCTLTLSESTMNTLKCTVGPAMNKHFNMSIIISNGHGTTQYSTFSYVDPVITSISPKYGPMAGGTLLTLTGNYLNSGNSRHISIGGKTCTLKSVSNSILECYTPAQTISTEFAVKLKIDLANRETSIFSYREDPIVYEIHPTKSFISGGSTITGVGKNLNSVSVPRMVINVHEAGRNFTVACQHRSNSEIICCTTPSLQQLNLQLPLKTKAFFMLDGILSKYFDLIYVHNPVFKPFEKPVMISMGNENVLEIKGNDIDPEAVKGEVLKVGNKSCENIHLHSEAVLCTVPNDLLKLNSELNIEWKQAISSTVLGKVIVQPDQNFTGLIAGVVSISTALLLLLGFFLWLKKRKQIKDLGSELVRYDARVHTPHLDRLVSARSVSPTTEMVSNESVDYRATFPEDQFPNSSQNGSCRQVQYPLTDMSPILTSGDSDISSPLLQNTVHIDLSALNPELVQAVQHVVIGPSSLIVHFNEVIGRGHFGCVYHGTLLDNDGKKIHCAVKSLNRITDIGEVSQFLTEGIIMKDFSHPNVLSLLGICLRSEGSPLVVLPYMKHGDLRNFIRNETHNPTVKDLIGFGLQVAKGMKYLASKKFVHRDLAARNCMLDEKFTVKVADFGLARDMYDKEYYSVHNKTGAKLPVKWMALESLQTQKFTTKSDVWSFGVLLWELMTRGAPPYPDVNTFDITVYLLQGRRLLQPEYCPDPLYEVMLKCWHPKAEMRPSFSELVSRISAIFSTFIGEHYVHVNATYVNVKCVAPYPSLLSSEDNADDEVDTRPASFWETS
- EXPERIMENT DESCRIPTION: flow cytometry, PC-3 cells; EC50 with 50 ng/mL HGF against EC50 without HGF

BINDER	READOUT	RESULT
mAb3c (antibody, human IgG1, kappa, V domains shown, Humanized IgG1 kappa, HC-41C, from wt/41C-chi-mAb3; also called humanized HC-41C antibody mAb3c) VH: QVQLVQSGAEVKKPGASVKVSCKASGYTFTDYYLNWVRQACGQGLEWMGLIFPGNDKTEYSEKFKGRVTLTTDTSISTAYMELSSLTSDDTALYYCSGGDYGGFVYWGQGTLVTVSS VL: DIQMTQSPSSLSASVGDRVTITCGASENIYGALNWYQQKPGKAPKLLIYGATNLADGVPSRFSGSGSGTDFTLTISSLQPEDVATYYCQNVLSSPLTFGSGTKLEIKR	Fold shift (HGF)	1.9 fold

Turning now to a further record.
The binder mAb2a (antibody, human IgG1, kappa, V domains shown, Humanized IgG1 kappa, HC-41C, from wt/41C-chi-mAb2; also called humanized HC-41C antibody mAb2a) VH: QVQLVQSGAELRKPGSSVKVSCRASGYVFPDYEMHWVRQACGQGLEWMGAFDPETGDTTYNQNFKGRVTIAADKSTSTAYMELRSLRSEDTAIYYCARDYKYLYYYAMDNWGQGTMVTVSS VL: EIVLTQSPSLLSASIGDRVTIPCTASSSITSSYLHWYQQKPGKAPKLLIYSTTNLASGVPSRFSGSGSGTEFTLTISSLQPEDFATYYCHQYRRSPLTFGGGTKLEIKR showed Fold shift (HGF) equal to 2.3 fold
